- procedure_details: folding stability dG unfold from trypsin proteolysis; higher = more stable
readout_name: folding stability dG unfold (kcal/mol)

sequence_content	unit_descriptor	measured_number
SAGGSAGGSAGVPVPGTDVPAEPITVLKKNPDGTVTKLKDESLTLEEIKAKLPGEVEFVGSAGGSAGGSAGG [r17_125_JUSTAS]	kcal/mol	0.0884
SAGGSAGGSAGVPDNAKIRLAFEFDGYIVLIEATPGTGFIKNIDKVEVFPVIPNTGEVTGSAGGSAGGSAGG [r11_66_TrMRF]	kcal/mol	1.53
SAGMSADIPVDPVTGTLTITVTDAFNPDKSTTTTVPLSELEAELGRPLTLEEVAARVEAAGVATVTVGPSAG [r14_809_JUSTAS]	kcal/mol	1.46
SASNKPRTIEVPIMIPPDDLKEHSPEEFIDWIANELGLPPGKDIKIDVDIEPFEHDGRPYYIIPARIQVSAG [r14_334_TrROS]	kcal/mol	-0.362
SAGGSAEKPVRTLEITVTVPPGQPTPEELARALAEELGVEVTRVEVVRVERNEDGELTVTVRVEVKSAGGSA [r15_654_TrROS_Hall]	kcal/mol	3.2
ARELPVEEIREAVREFLRKHGFRVVSEEVVELPDGSVLVFVEAEPEDKSTRYRLVITRPVDGSVRLVIEPVS [r1_460_TrMRF]	kcal/mol	2.66
SAGGSAGGMFYVVRLEGPDGPLRTLVRPAESLEEARAFAEALAPEGARVTVEPLEEEEAERLLGSAGGSAGG [r6_267_TrMRF]	kcal/mol	1.07
SAGGSAGGSAGGKTVWIPWDDLEELKDLPPGKKRTIHLWNPKNGRWYRITVTDNNIEIERSAGGSAGGSAGG [r7_765_TrROS]	kcal/mol	2.36
SAGGSAGGMKEGEEFEIELPDKYKVKIRVKDNIIEVEFPPGLRVRAEILENGEVKVYLPPELKPSAGGSAGG [r6_970_TrMRF]	kcal/mol	2.04
SAGGSAGGSAGGSLTFDGPDTKIEVYELDDDLLPVTIYTDSAPRTILVPPKEFLKLLASSAGGSAGGSAGGS [r4_346_TrMRF]	kcal/mol	0.0915
SAGGMIRITEGPNYYKITFWMPPNNPSLLEEIADFFGNPKVDTEPIPEDGMTRHEITLPLDDPEAIKSAGGS [r16_479_TrROS]	kcal/mol	0.765
SAGGSAGGSAGGMTTITVKDKTKEEIEKELAEKYNVKKVTVTPIEGNSVKVEVEIEPLGSAGGSAGGSAGGS [r10_1219_JUSTAS]	kcal/mol	-0.216
SAGGSAGGSAGGGSMTLSLDTRPEDGTLVLVSTFVDPASGLVSVTTTYPDSTVTTTLPVGSAGGSAGGSAGG [r7_402_JUSTAS]	kcal/mol	0.998
SAGGSAGGSAGGDVKVTVTVTVDPETGEPVVEVTLELPGDRAIRARFTPDGRLLSVEEVDSAGGSAGGSAGG [r7_454_TrMRF]	kcal/mol	3.79
SAGGSAGGSSGKYTITVTRKNPDGTPLGVFPIEVEGESEEEAKALAEELKNQPDVVEVKVTYVDSAGGSAGG [r6_475_JUSTAS]	kcal/mol	1.37
SAGGSAGGSAGGEKVTLTLELPAEEIEELAKALAPPGAKVKITKISYDKENKKVTIEIESAGGSAGGSAGGS [r10_1030_TrROS_Hall]	kcal/mol	0.937
SAGGSSMRKLIIIGPEGVTLERPIGPERTVEDVKAEWEAIGNVKFEEYPETGEVVVYLPEEALKEKSAGGSA [r2_164_JUSTAS]	kcal/mol	0.601
SAGGMTPEELKKVTIEKTVKDPSGNEYLEKSEVKEVEKKDEKYILKIPYTIKDKNGNTISNGTKTIPLSAGG [r13_172_JUSTAS]	kcal/mol	-0.446
SAGGSAMTKEEAKEYAEKRVKEEHPGWTVLGVEVTELPGKEVLTKVTVKPPENPDKTLEFEFKFPLSAGGSA [r15_627_JUSTAS]	kcal/mol	2.34
SAGMEIKYTITVSLSSGQTLGTKTITDPGKSIEEIVKEFAKIPGLTLITVTVTNPDGTPTTVTIPVNPSAGG [r19_269_JUSTAS]	kcal/mol	2.24
SAGGSAGGSAGKPVLKLTVTLPNGLTVTVTINPDGEITVEIRPLPPPPPPVRTYSDEELKSAGGSAGGSAGG [r11_1015_TrROS_Hall]	kcal/mol	2.29
SAGPPKKREFEIMIQIPLPPGQSAEELKDLLEIPIRLPDGKTIEIRPRAIEVDPGPGQVTVHYKIEVTDSAG [r5_939_TrROS]	kcal/mol	0.179
SAGGSAGGSAKEIKLKITKVTFTENEDGTLTATFELEDGYRVTIKFNKKTNKVEIKIEPLPSAGGSAGGSAG [r3_438_TrROS_Hall]	kcal/mol	2.47
SAGGSAGGSAGPKPPPVYRLRIVNPDGEVYEFEVPADMSPEEIAKRLGLPPGARVELEKVSAGGSAGGSAGG [r11_340_TrROS_Hall]	kcal/mol	2.59
SPVKIRIIVPKGMDPEMANFIVKEIMKHLGLPPGAPVEILPWEDLQKNPDVHQALEEAEKEGADIVILIRSA [r9_1147_TrROS]	kcal/mol	3.08
SAGGSASLEELAEKLREKLPPEEAEKLRELLKELEEKGYEIVEIRIEVLPNGEKKVTIKLKVKKKPSAGGSA [r15_613_TrROS_Hall]	kcal/mol	3.34
SAGGSAGGSAGMEIEEKGDYLVIRIKVKEGETIELPEGWEVVDVEYDPETEEVTIVIRRKSAGGSAGGSAGG [r11_942_TrROS_Hall]	kcal/mol	4.38
